Attribution: patent US20040127518A1

# Tested system: FAAH (Rattus norvegicus, UniProt P97612)
# Sequence (P97612 1-579): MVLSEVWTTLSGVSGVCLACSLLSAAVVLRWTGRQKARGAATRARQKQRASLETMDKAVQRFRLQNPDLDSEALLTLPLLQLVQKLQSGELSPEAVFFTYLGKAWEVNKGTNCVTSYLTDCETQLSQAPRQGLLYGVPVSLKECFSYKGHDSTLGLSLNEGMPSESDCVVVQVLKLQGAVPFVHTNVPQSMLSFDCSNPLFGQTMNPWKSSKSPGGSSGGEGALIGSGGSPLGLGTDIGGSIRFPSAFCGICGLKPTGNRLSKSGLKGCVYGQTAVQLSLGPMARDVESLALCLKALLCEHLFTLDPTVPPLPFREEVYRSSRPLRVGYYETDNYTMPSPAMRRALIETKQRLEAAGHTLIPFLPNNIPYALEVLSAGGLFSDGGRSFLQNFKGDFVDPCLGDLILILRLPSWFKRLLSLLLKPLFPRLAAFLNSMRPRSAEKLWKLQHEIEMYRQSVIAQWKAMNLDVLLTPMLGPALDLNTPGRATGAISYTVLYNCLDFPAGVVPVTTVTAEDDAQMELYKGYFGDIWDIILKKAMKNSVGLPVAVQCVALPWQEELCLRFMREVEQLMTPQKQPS
# Experiment summary: biochemical
# Assay type: biochemical
# Set-up: from tissue; host or cells: rat brain (membrane fraction of homogenate; Wistar rats)
# Protocol conditions: read-out: Amidohydrolase IC50

{"Molecule": "O=C(NC1CCCCC1)Oc1ccc(-c2ccccc2)cc1 [PL#5, 4-biphenyl N-cyclohexylcarbamate]", "IC50, nM": 2300}

----------
# Tested system: FAAH (Rattus norvegicus)
# Experiment summary: biochemical
# Type: biochemical
# Set-up: from tissue; host or cells: rat brain (membrane fraction of homogenate; Wistar rats)
# Protocol conditions: Table 5; rat brain membranes, [3H]anandamide; read-out: IC50 (nM) ± S.E.M.
# binning rule on IC50: c1 (below 50 nM), c2 (50 nM to below 200 nM), c3 (200 nM or more)

{"Smiles str": "O=C(NC1CCCCC1)Oc1cccc(-c2cccc(F)c2)c1", "Class": "c2"}
{"Smiles str": "Cc1ccc(-c2cccc(OC(=O)NC3CCCCC3)c2)cc1", "Class": "c2"}
{"Smiles str": "O=C(NC1CCCCC1)Oc1cccc(-c2cccc(-c3ccccc3)c2)c1", "Class": "c3"}
{"Smiles str": "O=C(NC1CCCCC1)Oc1cccc(-c2cccc(CCO)c2)c1", "Class": "c1"}
{"Smiles str": "N#Cc1cccc(-c2cccc(OC(=O)NC3CCCCC3)c2)c1", "Class": "c1"}
{"Smiles str": "NS(=O)(=O)c1cccc(-c2cccc(OC(=O)NC3CCCCC3)c2)c1", "Class": "c1"}
{"Smiles str": "Cc1cccc(-c2cccc(OC(=O)NC3CCCCC3)c2)c1", "Class": "c2"}
{"Smiles str": "O=C(NC1CCCCC1)Oc1cccc(-c2cccc(Oc3ccccc3)c2)c1", "Class": "c3"}
{"Smiles str": "O=C(NC1CCCCC1)Oc1cccc(-c2ccccc2)c1", "Class": "c2"}
{"Smiles str": "NC(=O)c1ccc(-c2cccc(OC(=O)NC3CCCCC3)c2)cc1", "Class": "c3"}

----------
# Tested system: FAAH (Rattus norvegicus)
# Sequence (P97612 1-579): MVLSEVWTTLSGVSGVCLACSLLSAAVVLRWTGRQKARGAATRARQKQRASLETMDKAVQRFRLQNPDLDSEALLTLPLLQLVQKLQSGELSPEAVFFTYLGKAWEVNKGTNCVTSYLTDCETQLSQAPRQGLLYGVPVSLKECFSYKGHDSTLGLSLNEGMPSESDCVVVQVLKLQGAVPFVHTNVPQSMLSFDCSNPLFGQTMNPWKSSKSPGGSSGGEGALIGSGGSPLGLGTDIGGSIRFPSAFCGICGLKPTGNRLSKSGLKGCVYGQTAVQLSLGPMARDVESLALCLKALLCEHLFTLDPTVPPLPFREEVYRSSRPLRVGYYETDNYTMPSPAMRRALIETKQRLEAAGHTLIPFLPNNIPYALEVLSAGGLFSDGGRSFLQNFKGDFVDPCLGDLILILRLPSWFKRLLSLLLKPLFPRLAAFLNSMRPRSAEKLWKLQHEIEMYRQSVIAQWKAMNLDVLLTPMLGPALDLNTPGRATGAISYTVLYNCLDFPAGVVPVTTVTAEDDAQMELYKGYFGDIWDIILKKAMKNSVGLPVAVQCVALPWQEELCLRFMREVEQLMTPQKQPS
# Experiment summary: biochemical
# Format: biochemical
# Design: from tissue; host or cells: rat brain (membrane fraction of homogenate; Wistar rats)
# Protocol conditions: Table 5; rat brain membranes, [3H]anandamide; read-out: IC50 (nM) ± S.E.M.
Measured parameter: log10 of IC50 (log10 of the value in nM)

{"Molecule": "O=C(NC1CCCCC1)Oc1cccc(-c2cccc(OC(=O)NC3CCCCC3)c2)c1 [Compound 3l]", "log10 of IC50": 2.56}
{"Molecule": "O=C(NC1CCCCC1)Oc1cccc(-c2ccc(F)cc2)c1 [Compound 3e]", "log10 of IC50": 1.81}
{"Molecule": "CC(=O)c1cccc(-c2cccc(OC(=O)NC3CCCCC3)c2)c1 [Compound 3s]", "log10 of IC50": 0.96}
{"Molecule": "O=C(NC1CCCCC1)Oc1cccc(-c2cccc(CO)c2)c1 [Compound 3v]", "log10 of IC50": 0.94}
{"Molecule": "O=C(NC1CCCCC1)Oc1cccc(-c2cccc(Cc3ccccc3)c2)c1 [Compound 3o]", "log10 of IC50": 3.27}

----------
IC50 overview
# Tested system: FAAH (Rattus norvegicus, UniProt P97612)
# Sequence (P97612 1-579): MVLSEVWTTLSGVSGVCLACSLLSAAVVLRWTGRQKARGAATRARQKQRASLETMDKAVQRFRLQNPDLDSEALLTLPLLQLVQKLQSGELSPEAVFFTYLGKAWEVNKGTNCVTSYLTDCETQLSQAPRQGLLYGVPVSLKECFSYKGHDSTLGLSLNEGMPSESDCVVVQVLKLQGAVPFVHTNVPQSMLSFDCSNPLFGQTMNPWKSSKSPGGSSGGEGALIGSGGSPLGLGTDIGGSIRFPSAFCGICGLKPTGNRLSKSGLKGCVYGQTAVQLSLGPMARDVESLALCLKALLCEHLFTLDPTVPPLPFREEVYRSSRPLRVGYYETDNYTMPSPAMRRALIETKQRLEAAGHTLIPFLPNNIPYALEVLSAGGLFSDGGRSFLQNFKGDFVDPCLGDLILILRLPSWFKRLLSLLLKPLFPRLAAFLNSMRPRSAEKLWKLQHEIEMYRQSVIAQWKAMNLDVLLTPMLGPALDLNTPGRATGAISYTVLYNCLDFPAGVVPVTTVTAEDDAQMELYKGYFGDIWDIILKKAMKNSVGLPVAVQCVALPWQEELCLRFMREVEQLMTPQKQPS
# Experiment summary: biochemical
# Format: biochemical
# Parameters: from tissue; host or cells: rat brain (membrane fraction of homogenate; Wistar rats)
# Protocol conditions: Table 6; meta-substituted derivatives; read-out: pIC50 obsd (converted)

{"Smiles str": "O=C(NC1CCCCC1)Oc1cccc(-c2cccc([N+](=O)[O-])c2)c1", "IC50 / nM": 50.1}
{"Smiles str": "O=C(NC1CCCCC1)Oc1cccc(-c2cccc(Cc3ccccc3)c2)c1", "IC50 / nM": 1860}
{"Smiles str": "O=C(NC1CCCCC1)Oc1cccc(-c2cccc(CCO)c2)c1", "IC50 / nM": 18.6}
{"Smiles str": "O=C(NC1CCCCC1)Oc1cccc(-c2cccc(CO)c2)c1", "IC50 / nM": 8.71}
{"Smiles str": "O=C(NC1CCCCC1)Oc1cccc(-c2cccc(F)c2)c1", "IC50 / nM": 95.5}
{"Smiles str": "Cc1cccc(-c2cccc(OC(=O)NC3CCCCC3)c2)c1", "IC50 / nM": 61.7}
{"Smiles str": "N#Cc1cccc(-c2cccc(OC(=O)NC3CCCCC3)c2)c1", "IC50 / nM": 33.9}
{"Smiles str": "O=C(NC1CCCCC1)Oc1cccc(-c2cccc(-c3ccccc3)c2)c1", "IC50 / nM": 562}
{"Smiles str": "O=C(NC1CCCCC1)Oc1cccc(-c2cccc(OC(=O)NC3CCCCC3)c2)c1", "IC50 / nM": 363}

----------
IC50 overview
# Tested system: FAAH (Rattus norvegicus)
# Experiment summary: biochemical
# Format: biochemical
# Set-up: from tissue; host or cells: rat brain (membrane fraction of homogenate; Wistar rats)
# Protocol conditions: pIC50 obsd

{"Compound": "CCCc1cccc(-c2cccc(OC(=O)NC3CCCCC3)c2)c1 [Compound 3p]", "Tested system": "FAAH (Rattus norvegicus)", "IC50, nM": 110}
{"Compound": "O=C(NC1CCCCC1)Oc1cccc(-c2cccc(O)c2)c1 [Compound 3u]", "Tested system": "FAAH (Rattus norvegicus)", "IC50, nM": 8.71}
{"Compound": "Nc1cccc(-c2cccc(OC(=O)NC3CCCCC3)c2)c1 [Compound 3j]", "Tested system": "FAAH (Rattus norvegicus)", "IC50, nM": 64.6}
{"Compound": "O=C(NC1CCCCC1)Oc1cccc(-c2cccc(C(F)(F)F)c2)c1 [Compound 3g]", "Tested system": "FAAH (Rattus norvegicus)", "IC50, nM": 145}
